# Test system: pigweed (Amaranthus retroflexus)
# METHOD_SUMMARY: Test C pre-/postemergence: pigweed
# Type: in vivo
# CONDITIONS: Postemergence, 125 g ai/ha; scale 0 to 100, 0 no effect, 100 complete control
PROPERTY_NAME: Plant response rating, Pigweed

- CCCc1nn(-c2ccc(F)cc2F)nc1Oc1ccnc(C(F)(F)F)c1: 98
- FC(F)(F)c1ccc(-n2nc(Cl)c(Cc3ccnc(C(F)(F)F)c3)n2)cc1: 55
- CCc1nn(-c2ccc(C(F)(F)F)cc2)nc1Cc1ccnc(C(F)(F)F)c1: 98
- CCOc1nn(-c2ccc(Cl)cc2)nc1Cc1ccnc(C(F)(F)F)c1: 98
- Fc1ccc(-n2nc(Cc3ccnc(C(F)(F)F)c3)c(OC(F)F)n2)cc1: 95
- COc1nn(-c2ccc(C(F)(F)F)cc2)nc1Cc1ccnc(C(F)F)c1: 98
- Cc1nn(-c2ccc(F)c(C(F)(F)F)c2)nc1Cc1ccnc(C(F)(F)F)c1: 95

The measured values listed here are drawn from patent US9302999B2.
